assay: in vivo; settings: female, BALB/c, mouse, ip, 15 mg/kg
Measured quantity: AUC (µM·h)
Respond numerically; units are µM·h and should not be typed.

**Query** Name the recorded AUC of the molecule listed here: CO[C@@H]1[C@@H](OC(N)=O)[C@@H](O)[C@H](Oc2ccc3c(O)c(NC(=O)c4ccc(O)c(CC=C(C)C)c4)c(=O)oc3c2C)OC1(C)C
**Result** 33.2

---

experiment: in vivo; conditions: female, BALB/c, mouse, ip, 15 mg/kg
Measured quantity: AUC(0-inf) (µM·h)
Respond numerically; units are µM·h and should not be typed.

**Query** Name the recorded AUC(0-inf) of the molecule listed here: CO[C@@H]1[C@@H](OC(N)=O)[C@@H](O)[C@H](Oc2ccc3c(O)c(NC(=O)c4ccc(O)c(CC=C(C)C)c4)c(=O)oc3c2C)OC1(C)C
**Result** 33.2

---

test: in vivo; settings: female, BALB/c, mouse, ip, 15 mg/kg
Measured quantity: Tmax

**Query** Name the recorded Tmax of the molecule listed here: CO[C@@H]1[C@@H](OC(N)=O)[C@@H](O)[C@H](Oc2ccc3c(O)c(NC(=O)c4ccc(O)c(CC=C(C)C)c4)c(=O)oc3c2C)OC1(C)C
**Result** 1 h
